Here the recorded Urinary penciclovir recovery over 48 h (% of dose) is given for each entry.
Species: Mus musculus
Method description: The total amount of penciclovir recovered in the urine over a 48-h period was determined by HPLC using a C18 reversed-phase column in mouse.
Type: ADME, organism-based
Applied conditions: in vivo
Your answer is read as %, so omit the unit and give the number.

Examples from the recorded data:
{"Compound": "CCCCOC(=O)OCC(CO)CCn1cnc2cnc(N)nc21 (centres undefined)", "Units label": "%", "Measurement": 38}
{"Compound": "CCCCCOC(=O)OCC(CO)CCn1cnc2cnc(N)nc21 (centres undefined)", "Units label": "%", "Measurement": 47}
{"Compound": "CCOC(=O)OCC(CO)CCn1cnc2cnc(N)nc21 (centres undefined)", "Units label": "%", "Measurement": 50}

Annotate the compound CC(C)COC(=O)OCC(CO)CCn1cnc2cnc(N)nc21 (centres undefined) with its measured Urinary penciclovir recovery over 48 h (% of dose).
38
